Reference source: the supplement of paper PMC12042874

test: amyloid nucleation score (Sup35N fusion, yeast selection) (log enrichment); library NNK3; higher = more nucleation; inactive = no reads after selection;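 also: zero at mode of non-aggregating sequences after 7 days selection at 30°C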
RECORDED_ENDPOINT: amyloid nucleation score

Previously resolved entries follow.
1) SFSYFRVSFEYGRCHRYAEN: inactive
2) LTNTLAYTVRKKTFQIGLLC: inactive
3) WTGFFCNAVKTTTGFNALFL: inactive
4) ILFIDSSFLIVR: inactive
5) LLNVTHSVAMTRTHGGVTYW: 0.776

Count: 5. Required value per item: amyloid nucleation score.
1. HVLYRRSSPYCVRWCNITER
2. YDCMSRVLAMARATMCRLGD
3. SAEVATFFNCKYHSSLSILT
4. RDGHIQMCFIWVKRDNCQVF
5. MFVVYLGYRRAVIDNDALED

["inactive", "inactive", "inactive", "inactive", "inactive"]

Count: 2. Required value per item: amyloid nucleation score.
1. YNQCWLTIDINFRYLLA
2. FMSSSPDSYCEKGKRQ

1. 1.4
2. inactive
